TGT: T1, human MSLN-R2-his protein (human, UniProt Q13421 391-486)
T1 construct: it is put last here; also called human MSLN-R2 protein; hMSLN-R2-his; not shown: His tag
MEASUREMENT PROTOCOL: ELISA on coated antigen, antibody 2 nM
# Lookup of reported OD450 keyed by entry
Just the number in OD, nothing appended.

Example entries begin here.
BINDER | REPORTED RESULT
S009-F7.2.3 (antibody, human IgG1, kappa, V domains shown, Human-murine chimeric antibody, human IgG1 heavy and kappa light constant regions) VH: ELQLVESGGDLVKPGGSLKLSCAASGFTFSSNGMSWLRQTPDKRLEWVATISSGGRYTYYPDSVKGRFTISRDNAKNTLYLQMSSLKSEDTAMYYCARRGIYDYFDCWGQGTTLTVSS VL: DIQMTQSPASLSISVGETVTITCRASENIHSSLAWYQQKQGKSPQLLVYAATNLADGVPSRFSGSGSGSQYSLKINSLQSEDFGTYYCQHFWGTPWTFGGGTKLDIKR | 2.37
S009-F7.66.12 (antibody, human IgG1, kappa, V domains shown, Human-murine chimeric antibody, human IgG1 heavy and kappa light constant regions) VH: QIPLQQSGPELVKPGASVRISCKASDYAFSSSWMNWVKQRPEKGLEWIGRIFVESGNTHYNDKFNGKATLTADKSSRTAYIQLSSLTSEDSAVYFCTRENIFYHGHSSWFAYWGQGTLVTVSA VL: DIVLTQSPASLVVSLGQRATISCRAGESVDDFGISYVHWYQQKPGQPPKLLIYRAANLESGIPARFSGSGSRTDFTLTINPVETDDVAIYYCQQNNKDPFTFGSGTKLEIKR | 0.06
S009-F7.33.24 (antibody, human IgG1, kappa, V domains shown, Human-murine chimeric antibody, human IgG1 heavy and kappa light constant regions) VH: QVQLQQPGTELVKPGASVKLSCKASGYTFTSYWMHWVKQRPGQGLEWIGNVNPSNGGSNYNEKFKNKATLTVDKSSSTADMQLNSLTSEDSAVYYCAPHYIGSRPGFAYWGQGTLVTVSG VL: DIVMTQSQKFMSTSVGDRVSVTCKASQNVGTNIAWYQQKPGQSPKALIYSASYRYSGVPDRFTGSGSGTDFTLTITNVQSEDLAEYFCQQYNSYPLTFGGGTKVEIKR | 0.06

State the recorded OD450 for this entry: S009-F7.11.11 (antibody, human IgG1, kappa, V domains shown, Human-murine chimeric antibody, human IgG1 heavy and kappa light constant regions) VH: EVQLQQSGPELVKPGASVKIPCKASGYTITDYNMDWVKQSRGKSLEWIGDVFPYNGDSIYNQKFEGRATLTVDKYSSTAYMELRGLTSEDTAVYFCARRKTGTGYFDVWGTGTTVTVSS VL: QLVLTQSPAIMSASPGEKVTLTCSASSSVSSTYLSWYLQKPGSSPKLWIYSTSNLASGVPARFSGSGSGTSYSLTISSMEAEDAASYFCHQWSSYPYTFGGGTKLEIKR
0.05
